Measured TD50, listed per entry.
assay: Compound was evaluated for toxic dose on locomotor assessed by rotarod test in mice; assay type: ADME; settings: mouse, in vivo

{"columns": ["Molecular string", "Value relation sign", "TD50 [mg/kg]"],
 "data": [
  ["COc1ccc(C2=NNC(=O)Cc3cc4c(cc32)OCO4)cc1", ">", 62.1],
  ["Nc1ccc(C2=NNC(=O)Cc3cc4c(cc32)OCO4)cc1", "=", 29.3],
  ["O=C1Cc2cc3c(cc2C(c2ccccc2)=NN1)OCO3", "=", 44.6]
]}

----------
species: Mus musculus; experiment: Compound was evaluated for anticonvulsant activity against AMPA induced seizures in DBA/2 mice( clonic phase); type: functional
Rule: ED50 below 20 mg/kg gives t, anything at or above gives f.

{"columns": ["Molecular string", "Qualitative label"],
 "data": [
  ["COc1cc2c(cc1OC)C(c1ccccc1)=NNC(=O)C2", "t"],
  ["O=C1Cc2cc3c(cc2C(c2ccccc2)=NN1)OCO3", "f"],
  ["COc1cc2c(cc1OC)C(c1ccc(N)cc1)=NNC(=O)C2", "t"],
  ["Nc1cccc(C2=NNC(=O)Cc3cc4c(cc32)OCO4)c1", "t"],
  ["CC1=NN=C(c2ccc(N)cc2)c2cc3c(cc2C1)OCO3", "t"],
  ["Nc1ccc(C2=NNC(=O)Cc3cc4c(cc32)OCO4)cc1", "t"]
]}
